Tested on: CP211
Measurement Protocol: qHTS profiling for inhibitors of Plasmodium falciparum proliferation (AID 504749); further: nearly all actives have a fitted effect of over 60% in size
Run Parameters: P. falciparum in erythrocytes, SYBR Green DNA, 72 h; series mostly up to 28.7 µM
Results filed as inconclusive are left out. Calls of active or inactive are those of the source. The call rests on the fitted dose curve; in most records, active means well fitted inhibition curve with a large enough effect; inconclusive means small, poorly fitted or top-dose-only effect; inactive means flat fitted curve, though single readings scatter.
Labels: YES = active, NO = inactive

> print(dat)
                                    molecule  assigned.category
 1       COC(=O)Nc1nc2ccc(Sc3ccccc3)cc2[nH]1                 NO
 2  COc1cc2c(Nc3ccc(Br)cc3F)ncnc2cc1OCC1CCN(C)CC1                 NO
 3  CCOC(=O)[C@H](CCc1ccccc1)N[C@H]1CS[C@H](c2cccs2)CN(CC(=O)O)C1=O                 NO
 4                            NC(=O)c1cccnc1                 NO
 5  C[C@@H](NCCCc1cccc(C(F)(F)F)c1)c1cccc2ccccc12                YES
 6                    S=P(N1CC1)(N1CC1)N1CC1                 NO
 7            CN(Cc1cc(Br)cc(Br)c1N)C1CCCCC1                 NO
 8                  CCCN[C@H]1CCc2nc(N)sc2C1                 NO
 9  COc1ccc2cc3[n+](cc2c1OC)CCc1cc2c(cc1-3)OCO2                YES
10                   C#CCN[C@@H]1CCc2ccccc21                 NO
11                    CC1=CC(=O)c2ccccc2C1=O                 NO
12  COc1nc(N)nc2c1ncn2[C@@H]1O[C@H](CO)[C@@H](O)[C@@H]1O                 NO
13  CN(C)CCc1c[nH]c2ccc(CS(=O)(=O)N3CCCC3)cc12                 NO
14           NC(=O)N1c2ccccc2CC(=O)c2ccccc21                 NO
15  CC(C)(C)C(=O)OCOP(=O)(COCCn1cnc2c(N)ncnc21)OCOC(=O)C(C)(C)C                 NO
16                  Cn1nnc2c(C(N)=O)ncn2c1=O                 NO
17  CN1CCN(c2c(F)cc3c(=O)c(C(=O)O)cn(CCF)c3c2F)CC1                 NO
18       COc1ncnc(NS(=O)(=O)c2ccc(N)cc2)c1OC                 NO
19  CC[C@H](NC(C)C)[C@H](O)c1ccc(O)c2[nH]c(=O)ccc12                 NO
20  Nc1nc(N)c2nc(CNc3ccc(C(=O)NC(CCC(=O)O)C(=O)O)cc3)cnc2n1 (stereo not drawn)                 NO
21  CCn1cc(C(=O)O)c(=O)c2cc(F)c(N3CCNCC3)nc21                 NO
22   COC(=O)Nc1nc2ccc(C(=O)c3ccccc3)cc2[nH]1                 NO
23              NCCCC(O)(P(=O)(O)O)P(=O)(O)O                 NO
24                 CNNCc1ccc(C(=O)NC(C)C)cc1                 NO
25                 Cc1ncc([N+](=O)[O-])n1CCO                 NO
26         COc1cnc(NS(=O)(=O)c2ccc(N)cc2)nc1                 NO
27  CCOc1cc(N)c(Cl)cc1C(=O)NCC1CN(Cc2ccc(F)cc2)CCO1 (stereo not drawn)                YES
28     CNS(=O)(=O)Cc1ccc2[nH]cc(CCN(C)C)c2c1                 NO
